# test.system: human NPRA (Homo sapiens)
# Construct: Full-Length cDNA Cloning and Generation of Cell Lines Overexpressing Natriuretic Peptide Receptors (NPRs); expressed in transfected cells; host or cells: Jump-in T-Rex HEK293 cells, pJTI R4 CMV-TO MCS pA vector, tetracycline induction
# Sequence (P16066 33-1061): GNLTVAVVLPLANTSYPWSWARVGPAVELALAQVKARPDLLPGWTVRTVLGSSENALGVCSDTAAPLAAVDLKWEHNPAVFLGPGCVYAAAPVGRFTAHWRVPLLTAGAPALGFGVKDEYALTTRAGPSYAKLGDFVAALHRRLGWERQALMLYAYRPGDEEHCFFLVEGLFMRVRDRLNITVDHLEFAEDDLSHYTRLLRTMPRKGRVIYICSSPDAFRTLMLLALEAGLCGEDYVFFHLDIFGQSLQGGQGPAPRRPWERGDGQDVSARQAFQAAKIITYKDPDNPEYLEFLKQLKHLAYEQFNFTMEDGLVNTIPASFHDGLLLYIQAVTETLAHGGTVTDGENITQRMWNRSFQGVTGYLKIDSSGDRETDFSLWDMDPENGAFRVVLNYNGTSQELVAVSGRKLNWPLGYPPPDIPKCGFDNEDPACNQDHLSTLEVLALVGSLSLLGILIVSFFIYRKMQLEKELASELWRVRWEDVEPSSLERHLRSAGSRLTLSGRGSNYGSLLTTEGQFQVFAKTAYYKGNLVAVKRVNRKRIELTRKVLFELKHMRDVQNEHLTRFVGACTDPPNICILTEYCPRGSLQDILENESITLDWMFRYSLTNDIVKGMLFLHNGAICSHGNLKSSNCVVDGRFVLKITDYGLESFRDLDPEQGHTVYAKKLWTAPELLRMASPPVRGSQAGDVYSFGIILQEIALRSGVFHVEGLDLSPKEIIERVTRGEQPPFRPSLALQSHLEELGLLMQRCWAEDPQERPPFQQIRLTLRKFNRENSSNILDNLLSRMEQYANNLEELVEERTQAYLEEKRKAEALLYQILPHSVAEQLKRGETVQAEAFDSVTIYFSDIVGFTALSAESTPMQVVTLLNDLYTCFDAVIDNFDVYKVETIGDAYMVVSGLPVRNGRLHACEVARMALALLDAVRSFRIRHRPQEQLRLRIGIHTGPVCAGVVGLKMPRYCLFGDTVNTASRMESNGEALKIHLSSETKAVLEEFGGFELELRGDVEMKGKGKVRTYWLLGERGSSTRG
# test.summary: Human NPRA cGMP activity assay (HTRF) in HEK293 cells overexpressing NPRA
# Type: cell-based
# condition.details: assay buffer with 0.1% casein, read-out: cGMP Assay (EC50, pM) w/Casein hNPRA
Numbered stars: 1 amine (or outer) side, 2 acyl side, 3 side chain; on linkers, the order of the positions; unused ones are H or OH. Bridge positions count the residues as written; N and C are the ends. Square brackets hold non-standard residues; d marks the D form. * marks the point of attachment. PEG24 = NCCOCCOCCOCCOCCOCCOCCOCCOCCOCCOCCOCCOCCOCCOCCOCCOCCOCCOCCOCCOCCOCCOCCOCCOCCC(=O)O; C20 diacid = O=C(O)CCCCCCCCCCCCCCCCCCC(=O)*; γGlu = O=C(O)[C@H](CCC(=O)[*:2])N[*:1]; 4Pal = N[C@@H](Cc1ccncc1)C(=O)O; Dap = NC[C@H](N)C(=O)O; AEEA = NCCOCCOCC(=O)O; Aib = CC(C)(N)C(=O)O; CH2 = C([*:1])[*:2]; βAla = NCCC(=O)O
outcome.measure: log10(EC50) (log10 of the value in pM)
Recorded EC50 (log10, pM)

Find the recorded log10(EC50) belonging to {C20 diacid-γGlu}-EKEKEKGEKPRSSCFGG[Dap]IDRIGHQSGLGCPSFRHGSPSSGAPPPS-NH2 (linker 14-30 via CH2) [Example 139] and report it. 4.29

Find the recorded log10(EC50) belonging to {C20 diacid-γGlu}-EKEKEKGEKPRSSCFG[Dap]RIDRIGHYSGLGCPSFRHGSPSSGAPPPS-NH2 (linker 14-30 via CH2) [Example 136] and report it. 3.14

Find the recorded log10(EC50) belonging to {C20 diacid-γGlu}-EKEKEKGEKPRSSCFG[Dap]RIDRIGHQSGLGCPSFRHGSPSSGAPPPS-NH2 (linker 14-30 via CH2) [Example 137] and report it. 2.89

Find the recorded log10(EC50) belonging to {C20 diacid-γGlu}-EKEKEKG[AEEA][AEEA][AEEA][AEEA][AEEA][AEEA]EK[βAla]RSSCFGKRIDRIGHQSGLGCPSFRHGSPSSGAPPPS-NH2 (linker 20-36 via CH2) [Example 119] and report it. 2.69

Find the recorded log10(EC50) belonging to {C20 diacid-γGlu}-EKEKEKGS[4Pal]RRSSCFGGRIDRIGHQSGLGCPSFRHGGKSSGAPPPS-NH2 (linker 14-30 via CH2) [Example 67] and report it. 3.09

Find the recorded log10(EC50) belonging to {C20 diacid-γGlu}-EKEKEKG[PEG24]S[4Pal]RRSSCFGGRIDRIGHQSGLGCPSFRHGGPPS[Aib]KPPPK-NH2 (linker 15-31 via CH2) [Example 84] and report it. 3.00
